Hey, just so you know, these numbers are from ChEMBL document CHEMBL4422682.

targetEntity: Bacterial urease (Bacteria, UniProt Q03284)
experiment: Inhibition of bacterial urease using urea as substrate preincubated for 15 mins followed by substrate addition […]
pIC50: −log10 of the molar value.
Could you label it TRUE if measured pIC50 is 5 or higher, and FALSE otherwise?

# compoundStructure, className
data = [
    ("O=S(=O)(N/N=C(\\c1ccccc1)c1ccc(O)cc1)c1ccc(Cl)cc1Cl", "FALSE"),
    ("O=[N+]([O-])c1ccc(S(=O)(=O)NN=C(c2ccccc2)c2ccccc2)c([N+](=O)[O-])c1", "FALSE"),
    ("O=[N+]([O-])c1ccc(S(=O)(=O)N/N=C(\\c2ccccc2)c2ccc(O)cc2)cc1", "TRUE"),
    ("CN(C)c1cccc2c(S(=O)(=O)NN=C(c3ccccc3)c3ccccc3)cccc12", "FALSE"),
    ("O=S(=O)(NN=C(c1ccccc1)c1ccccc1)c1cc(Cl)cc(Cl)c1O", "FALSE"),
    ("CN(C)c1cccc2c(S(=O)(=O)N/N=C(\\c3ccccc3)c3ccc(O)cc3)cccc12", "TRUE"),
    ("O=S(=O)(N/N=C(\\c1ccccc1)c1ccc(O)cc1)c1cc(Cl)cc(Cl)c1O", "TRUE"),
    ("O=S(=O)(N/N=C(\\c1ccccc1)c1ccc(O)cc1)c1ccccc1", "FALSE"),
    ("COc1ccc(S(=O)(=O)N/N=C(\\c2ccccc2)c2ccc(O)cc2)cc1", "FALSE"),
]

###

targetEntity: UniProt:P07374
Sequence (P07374 whole entry): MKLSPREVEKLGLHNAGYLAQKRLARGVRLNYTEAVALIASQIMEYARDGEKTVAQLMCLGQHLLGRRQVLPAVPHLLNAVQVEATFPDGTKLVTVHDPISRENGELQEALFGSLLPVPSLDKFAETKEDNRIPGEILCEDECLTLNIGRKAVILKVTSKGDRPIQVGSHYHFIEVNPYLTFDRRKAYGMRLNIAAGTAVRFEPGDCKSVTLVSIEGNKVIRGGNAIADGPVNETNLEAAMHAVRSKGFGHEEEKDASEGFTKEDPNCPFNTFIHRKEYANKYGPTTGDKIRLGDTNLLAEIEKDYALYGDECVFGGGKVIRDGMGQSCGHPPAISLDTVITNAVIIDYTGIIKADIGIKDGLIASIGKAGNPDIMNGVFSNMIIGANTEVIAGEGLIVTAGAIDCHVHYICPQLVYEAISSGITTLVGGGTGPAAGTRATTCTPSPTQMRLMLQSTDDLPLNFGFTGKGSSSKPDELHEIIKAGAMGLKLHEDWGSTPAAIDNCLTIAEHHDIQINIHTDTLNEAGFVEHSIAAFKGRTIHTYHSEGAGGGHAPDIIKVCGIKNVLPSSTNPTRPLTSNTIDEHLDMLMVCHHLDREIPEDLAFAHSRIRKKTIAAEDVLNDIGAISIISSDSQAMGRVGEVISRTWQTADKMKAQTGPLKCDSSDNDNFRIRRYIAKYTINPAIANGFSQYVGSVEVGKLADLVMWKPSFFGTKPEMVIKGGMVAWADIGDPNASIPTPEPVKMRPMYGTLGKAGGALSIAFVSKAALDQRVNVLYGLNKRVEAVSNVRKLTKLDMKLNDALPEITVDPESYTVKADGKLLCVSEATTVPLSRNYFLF
experiment: Inhibition of jack bean urease assessed as reduction in ammonia production using urea as substrate after 30 mins by indophenol method
pIC50: −log10 of the molar value.

# compoundStructure, pIC50
records = [
    ("NS(=O)(=O)c1ccc(CCNC=C2C(=O)NC(=S)NC2=O)cc1", 4.94),
]

###

Let's look at some molecules and their measured IC50.
targetEntity: Bacterial urease (Bacteria, UniProt Q03284)
experiment: Inhibition of bacterial urease using urea as substrate preincubated for 15 mins followed by substrate addition […]

# compoundStructure, unitOfMeasure, IC50
records = [
    ("O=[N+]([O-])c1cccc(S(=O)(=O)N/N=C(\\c2ccccc2)c2ccc(O)cc2)c1", "µM", 13.7),
    ("O=S(=O)(N/N=C(\\c1ccccc1)c1ccc(O)cc1)c1cc(Cl)ccc1Cl", "µM", 31.2),
    ("O=S(=O)(N/N=C(\\c1ccccc1)c1ccc(O)cc1)c1ccccc1Cl", "µM", 16.9),
]

###

targetEntity: Bacterial urease (Bacteria, UniProt Q03282+Q03283+Q03284)
Sequence (Q03282 whole entry): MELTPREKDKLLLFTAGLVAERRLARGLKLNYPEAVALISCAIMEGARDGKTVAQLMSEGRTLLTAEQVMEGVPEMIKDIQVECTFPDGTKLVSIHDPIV
Sequence (Q03283 whole entry): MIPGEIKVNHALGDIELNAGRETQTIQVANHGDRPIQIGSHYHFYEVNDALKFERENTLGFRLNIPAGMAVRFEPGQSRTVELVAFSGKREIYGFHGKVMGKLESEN
Sequence (Q03284 whole entry): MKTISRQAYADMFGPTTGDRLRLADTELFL
experiment: Inhibition of bacterial urease using urea as substrate preincubated for 15 mins followed by substrate addition […]
Format: protein-complex assay
experimentalEndpoint: IC50

# compoundStructure, measValue
rows = [
    ("O=S(=O)(NN=C(c1ccccc1)c1ccccc1)c1cc(Cl)c(Cl)cc1Cl", "Not Active"),
    ("O=[N+]([O-])c1ccccc1S(=O)(=O)NN=C(c1ccccc1)c1ccccc1", "Not Active"),
    ("O=S(=O)(NN=C(c1ccccc1)c1ccccc1)c1ccccc1Cl", "Not Active"),
    ("O=[N+]([O-])c1cc(S(=O)(=O)NN=C(c2ccccc2)c2ccccc2)ccc1Cl", "Not Active"),
    ("Cc1cc(S(=O)(=O)NN=C(c2ccccc2)c2ccccc2)c(C)cc1Cl", "Not Active"),
    ("O=[N+]([O-])c1cccc(S(=O)(=O)NN=C(c2ccccc2)c2ccccc2)c1Cl", "Not Active"),
    ("COc1ccc(S(=O)(=O)NN=C(c2ccccc2)c2ccccc2)c(OC)c1", "Not Active"),
    ("CCCCS(=O)(=O)NN=C(c1ccccc1)c1ccccc1", "Not Active"),
    ("COc1ccc(S(=O)(=O)NN=C(c2ccccc2)c2ccccc2)cc1", "Not Active"),
    ("O=S(=O)(NN=C(c1ccccc1)c1ccccc1)c1ccc2ccccc2c1", "Not Active"),
    ("O=S(=O)(NN=C(c1ccccc1)c1ccccc1)c1ccccc1", "Not Active"),
    ("O=S(=O)(NN=C(c1ccccc1)c1ccccc1)c1ccc(Cl)cc1Cl", "Not Active"),
    ("O=[N+]([O-])c1ccc(S(=O)(=O)NN=C(c2ccccc2)c2ccccc2)cc1", "Not Active"),
    ("O=[N+]([O-])c1cccc(S(=O)(=O)NN=C(c2ccccc2)c2ccccc2)c1", "Not Active"),
]
